Record type: pIC50 measurement. Applies to: Cathepsin D (Homo sapiens)
Starred links: 1 amine or outer side, 2 acyl side, 3 side chain; linkers in the order of their positions; H or OH if unused. Non-standard residues stand in square brackets, D forms with d. Residues, ends and D or L forms follow the SMILES beside them. LeuΨ(S-CHOHCH2)Ala = CC(C)C[C@H](N[*:1])[C@@H](O)C[C@@H](C)C(=O)[*:2]; X1 = CC(C)C[C@H](N[*:1])[C@@H](O)[C@@H]1CCC[C@H]1C(=O)[*:2]
Quick note: pIC50 means taking -log10 of the concentration in moles per liter.

CSCC[C@H](NC(=O)[C@H](CC(C)C)NC(C)=O)C(=O)N[C@@H](CC(C)C)[C@@H](O)[C@@H]1CCC[C@H]1C(=O)N[C@H](C(=O)O)C(C)C ... 7.60
CCCCNC(=O)[C@@H]1CCC[C@H]1[C@H](O)[C@H](CC(C)C)NC(=O)[C@H](CCSC)NC(=O)[C@H](CC(C)C)NC(C)=O ... 7.22
CC(C)C[C@H](NC(=O)[C@H](CC(N)=O)NC(=O)[C@@H](NC(=O)[C@@H](N)CCC(=O)O)C(C)C)[C@@H](O)[C@@H]1CCC[C@H]1C(=O)N[C@@H](C)C(=O)O (H-EVN[X1]A-OH) ... 5.22
CC(C)C[C@H](NC(=O)[C@H](CC(N)=O)NC(=O)[C@@H](NC(=O)[C@@H](N)CCC(=O)O)C(C)C)[C@@H](O)C[C@@H](C)C(=O)N[C@@H](C)C(=O)N[C@@H](CCC(=O)O)C(=O)N[C@@H](Cc1ccccc1)C(=O)O (H-EVN[LeuΨ(S-CHOHCH2)Ala]AEF-OH) ... 8.22

Problem: Notebook entry, Cathepsin D (Homo sapiens) assay: pIC50 of "CCCCNC(=O)[C@@H](NC(=O)[C@@H]1CC(=O)C[C@H]1[C@H](O)[C@H](CC(C)C)NC(=O)[C@H](CCSC)NC(=O)[C@H](CC(C)C)NC(C)=O)C(C)C" = ?
Solution: 7.25

Problem: Lookup: pIC50 / Cathepsin D (Homo sapiens) / CC(C)C[C@H](NC(=O)[C@H](CC(N)=O)NC(=O)[C@@H](NC(=O)[C@@H](N)CCC(=O)O)C(C)C)[C@@H](O)[C@@H]1CCC[C@H]1C(=O)N[C@@H](C)C(=O)N[C@@H](CCC(=O)O)C(=O)O (H-EVN[X1]AE-OH)
Solution: 7.22

Problem: Checklist item: pIC50 tested on Cathepsin D (Homo sapiens), entry "CSCC[C@H](NC(=O)[C@H](CC(C)C)NC(C)=O)C(=O)N[C@@H](CC(C)C)[C@@H](O)[C@@H]1CC(=O)C[C@H]1C(=O)N[C@@H](C)C(=O)O" , value?
Solution: 5.82

Source of measurements: ChEMBL document CHEMBL1145163
